Cited source: the supplement of paper PMC7125110

B1: glmS ribozyme (parent)
chain: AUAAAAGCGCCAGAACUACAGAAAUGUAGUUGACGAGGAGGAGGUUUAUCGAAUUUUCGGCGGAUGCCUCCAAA

Variants of: B1
PROCEDURE DETAILS: self-cleavage kobs at 160 uM GlcN6P; higher = faster cleavage; RNA array
CONDITION DETAILS: with glucosamine-6-phosphate
Variants at the floor of the assay were thinned out.
RECORDED METRIC: self-cleavage kobs at 160 uM GlcN6P

# MACROMOLECULE SEQUENCE, RESULT
records = [
    ("AUAAAAGCGCCAGUACUACAGAAAUGUAGUUGACGAGGAGGAGGACUAUCGAAUUUUCGGCGGAUGCCUCCAAA [A14U U45A U46C]", "0.000306 s⁻¹"),
    ("AUAAAAGCGCCAGAACUACAGAAAUGUAGUUGACGAGGAGGAGGUUUAUAGAAUUUUCGGCGGAUGCCUACAAA [C50A C70A]", "3.47e-05 s⁻¹"),
    ("AUAAAAGCGCCAGAACUACAGAAAUGUAGUUGACGAGGAGGAGGUUUAUCGAAUUUUCGGCGGAUGCUUCCAAA [C68U]", "0.000316 s⁻¹"),
    ("AUAAAAGCACCUGAACUACAGAAAUGUAGUUGCCGAGGAGGAGGUUUAUCGAAUUUUCGGCUGAUGCCUCCAAA [G9A A12U A33C G62U]", "< 1e-05 s⁻¹"),
    ("AUAAAAGCGCCAGAACUACAGAAAUGUAGUUGACGAGGAGAAGGUUGAUCGAAUUUUCGGCGGAUGCCUCCAAA [G41A U47G]", "6.46e-05 s⁻¹"),
    ("AUAAAAGCACCAGAACUACAGAAAUGUAGUUGACGAGGAGGAGGUCUAUCGAAUUUUCGGCGCAUGCCUCCAAA [G9A U46C G63C]", "< 1e-05 s⁻¹"),
    ("AUAAAAGCGCCUGAACUACAGAAAUGUAGUUGACGAGGAGGAGGUUUAUCGUAUUUUCGGCGGAUGCCUCCAAA [A12U A52U]", "7.11e-05 s⁻¹"),
    ("AUAAAGCCGUCAGAACUACAGAAAUGUAGUUGACUAGGAUGAGGUUUAUCGAAUUUUCGACGGAUGCCUGCAAA [A6G G7C C10U G35U G40U G60A C70G]", "< 1e-05 s⁻¹"),
    ("AUAAAAGCGCCAGAACUACAGAAAUGUAGUUGACGACGAGGAGGUUGAUCGAAUUUUCGGCGGAUGCCGCCAAA [G37C U47G U69G]", "7.9e-05 s⁻¹"),
    ("AUAAAACGGCCAGAACUACAGAAAUGUAGUUGACGAGGAGGAGGUUUAUCGGAUUUUCGGCGGAUGCCUCCAAA [G7C C8G A52G]", "< 1e-05 s⁻¹"),
    ("AUAAAAGCGCCAGAACUACAGAAAUGUAGUUGAGGAGUAGGAGCUUUACCGAAUUUUCGGCGGAUGCCUCCAAA [C34G G38U G44C U49C]", "< 1e-05 s⁻¹"),
    ("AUAAAAGCGCUACAAAUACAGAAAUGUAGUUGACGAGGAGGAGGUUUAACGAAUUUUCGGCGGAUGCCUCCAAA [C11U G13C C16A U49A]", "< 1e-05 s⁻¹"),
    ("AUAAAAGCGCCAGAACUACAGAAAUGUAGUUGACGAGCAGGAGGUUUAUCGAAUGUUCGGCGGAUGCCUCCAAA [G38C U55G]", "< 1e-05 s⁻¹"),
    ("AUAAAAGCGCCAGAACUACAGAAAUGUAGGUGACGAGGAGGAGGUUUAUCGCAUUUUCGGCGGAUGCCUCCAAA [U30G A52C]", "< 1e-05 s⁻¹"),
    ("AUAAAAGCGCCAGAACUACAGAAAUGUAGUUGACUAGGAGGAGGUUUAUCGAAUUUUCGGCGUAUGCCUCCAAA [G35U G63U]", "< 1e-05 s⁻¹"),
    ("AUAAAAGCGCCAGAACUACAGAAAUGUAGUUGACGAGGAGGAGGUUUAUCGAGUUUUAGGCGGAUGCGUCCAAA [A53G C58A C68G]", "0.000121 s⁻¹"),
    ("AUAAAAGCGCCAGAACUACAGAAAUGUAGUCGACGAGGAGGAUGUUUUUCGAAUAUUCGGCGGAUGCCUCCAAA [U31C G43U A48U U55A]", "< 1e-05 s⁻¹"),
    ("AUAAAAUUGCCAGAACUACAGAAAUGUAGUUGACGAGGAGGAGGUUUAUCGAAUUUUCGGCGGAUGCCUCCAAA [G7U C8U]", "< 1e-05 s⁻¹"),
]
